details: 293.15 K; 101.33 kPa; Liquid
What mass density was measured for each of the following?
Answers are plain numbers, in kg/m3.

# per-item lookup of mass density; items listed below
1. CCCCO [butan-1-ol]
2. CCCO [propan-1-ol]

Ans:
809.82
803.62

# per-item lookup of mass density; items listed below
1. CCOC(=O)OCC [diethyl carbonate]
2. CCCCCO [pentan-1-ol]

Ans:
[975, 814.51]

----------
details: 298.15 K; 101.33 kPa; Liquid
What mass density was measured for each of the following?
Numbers only, in kg/m3.

[[record]]
molecule = "CCCO [propan-1-ol]"
measured_result = 799.41

[[record]]
molecule = "CCCCO [butan-1-ol]"
measured_result = 806.06

[[record]]
molecule = "CCOC(=O)OCC [diethyl carbonate]"
measured_result = 968.97


Next item in the queue.
Q: Suppose we examine the molecule CCCCCO [pentan-1-ol] ; what mass density value has been reported?
Ans: 810.73

----------
details: 333.15 K; 101.33 kPa; Liquid
measured endpoint: viscosity (mPa·s)
Give bare numbers, in mPa·s.

[[record]]
molecule = "CCCO [propan-1-ol]"
measured_result = 0.907

[[record]]
molecule = "CCCCCO [pentan-1-ol]"
measured_result = 1.44


# per-item lookup of viscosity; items listed below
1. CCOC(=O)OCC [diethyl carbonate]
2. CCCCO [butan-1-ol]

Ans:
1: 0.483; 2: 1.137

----------
details: 363.15 K; 101.33 kPa; Liquid
What mass density was measured for each of the following?
Numbers only, in kg/m3.

# example entries with known answers
[[record]]
molecule = "CCCCO [butan-1-ol]"
measurement_unit = "kg/m3"
measured_result = 749.38

[[record]]
molecule = "CCOC(=O)OCC [diethyl carbonate]"
measurement_unit = "kg/m3"
measured_result = 893.71

[[record]]
molecule = "CCCCCO [pentan-1-ol]"
measurement_unit = "kg/m3"
measured_result = 757.17


Next item in the queue.
Q: Suppose we examine the molecule CCCO [propan-1-ol] ; what mass density value has been reported?
Ans: 739.7

----------
details: 313.15 K; 101.33 kPa; Liquid
What viscosity was measured for each of the following?
Numbers only, in mPa·s.

# example entries with known answers
[[record]]
molecule = "CCOC(=O)OCC [diethyl carbonate]"
measured_endpoint = "viscosity"
measurement_unit = "mPa·s"
measured_result = 0.61

[[record]]
molecule = "CCCCO"
measured_endpoint = "viscosity"
measurement_unit = "mPa·s"
measured_result = 1.786

[[record]]
molecule = "CCCCCO"
measured_endpoint = "viscosity"
measurement_unit = "mPa·s"
measured_result = 2.332


Next item in the queue.
Q: Suppose we examine the molecule CCCO ; what viscosity value has been reported?
Ans: 1.381

----------
details: 353.15 K; 101.33 kPa; Liquid
measured endpoint: viscosity (mPa·s)
Give bare numbers, in mPa·s.

[[record]]
compound = "CCCCO"
measured_result = 0.759

[[record]]
compound = "CCOC(=O)OCC [diethyl carbonate]"
measured_result = 0.393

[[record]]
compound = "CCCO"
measured_result = 0.615


Next item in the queue.
Q: Suppose we examine the compound CCCCCO ; what viscosity value has been reported?
Ans: 0.931

----------
What mass density was measured for each of the following?
details: 323.15 K; 101.33 kPa; Liquid
One number for each entry, in kg/m3.

# example entries with known answers
[[record]]
compound = "CCCCO [butan-1-ol]"
measured_result = 786.55

[[record]]
compound = "CCCCCO [pentan-1-ol]"
measured_result = 789.81

[[record]]
compound = "CCCO [propan-1-ol]"
measured_result = 773.91


Next item in the queue.
Q: Suppose we examine the compound CCOC(=O)OCC [diethyl carbonate] ; what mass density value has been reported?
Ans: 939.78
